- target.under.test: human Fc (human)
- test.protocol: ELISA; negative control
value.type: optical density (OD)
Response body: numeric value in OD, unit text excluded.

binder: 374_C11 (antibody, V domains shown) VH: EVQLLESGGGLVQPGGSLRLSCAASGFTFSSYSMNWVRQAPGKGLEWVAGINYNSGYKGYADSVKGRFTISRDNSKNTLYLQMNSLRAEDTAVYYCARSATWHDTHLDYWGQGTLVTVSS VL: DIQMTQSPSSLSASVGDRVTITCRASQSILTYLNWYQQKPGKAPKLLIYAATSRASGVPSRFSGSGSGTDFTLTISSLQPEDFATYYCQQSYESPLTFGGGTKVEIK
optical density [OD]: 0.471

Looking up 376_B04 (antibody, V domains shown) VH: EVQLLESGGGLVQPGGSLRLSCAASGFTFDSYGMHWVRQAPGKGLEWVASINYNGGYTGYADSVKGRFTISRDNSKNTLYLQMNSLRAEDTAVYYCARSANWHDTALDYWGQGTLVTVSS VL: DIQMTQSPSSLSASVGDRVTITCRASQSIVSYVNWYQQKPGKAPKLVIYAATSRASGVPSRFSGSGSGTDFTLTISSLQPEDFATYYCQQSYDTPLTFGGGTKVEIK , I found its optical density recorded as 0.293
